# system.tested: TDP-43 RRM1 (UniProt Q13148 96-185)
# Sequence (Q13148 96-185): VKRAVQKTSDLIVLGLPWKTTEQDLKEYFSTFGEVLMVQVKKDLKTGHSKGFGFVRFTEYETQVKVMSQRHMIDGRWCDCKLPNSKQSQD
# procedure.text: fluorescence anisotropy; RNasin; Anisotropy: 50 mM Tris, 100 mM NaCl, pH 8.0, 10 C, 0.1 uM probe, 0-30 uM protein (RNasin for RNA); pull-down: same buffer on Ni resin, room temperature, 1 h, eluted with 1 M NaCl
# applied.conditions: protein: recombinant; tags: N-term His6 + thrombin site + GSSGSSG linker; His removed by thrombin for anisotropy, kept for pull-down; label: 5'-fluorescein
pKd: −log10 of the molar value.
experimental.readout: pKd

binder: UGUGUGUG (ssRNA) [Fl-(UG)4 RNA]
experimental.readout: pKd
reported: 7.55
